Recorded MIC values for a group of compounds are listed next.
Tested on: Methicillin Resistant Staphylococcus aureus strain USA 300, NRS384
Test: Minimum inhibitory concentration, broth micro-dilution (CLSI), S. aureus
Assay type: cell-based
Settings: Staphylococcus aureus, MRSA / NRS 384 / USA300, 22 h, MRSA USA 300 NRS384; 35° C., 22 hours; read-out: MIC (μg/mL) S. aureus

# smiles.notation, units.text, MIC
rows = [
    ("CCCCCCCCCC(=O)NCCC(=O)N(C)[C@@H]1C(=O)N[C@@H](C)C(=O)N[C@H](C(=O)NCC#N)Cc2ccc(OCCN)c(c2)-c2cc1ccc2OCCN", "µg/mL", 1),
    ("C[C@@H]1NC(=O)[C@@H](N(C)C(=O)CCNCc2ccc(-c3ccc(Cl)cc3)cc2)c2ccc(OCCN)c(c2)-c2cc(ccc2OCCN)C[C@@H](C(=O)NCC#N)NC1=O", "µg/mL", 0.063),
    ("CCCCCCCc1cc(F)c(C(=O)N[C@@H](CCN)C(=O)N(C)[C@@H]2C(=O)N[C@@H](C)C(=O)N[C@H](C(=O)NCC#N)Cc3ccc(OCCN)c(c3)-c3cc2ccc3OCCN)c(F)c1", "µg/mL", 0.063),
    ("CCCCCCCCc1ccc(C(=O)N[C@@H](CC(N)=O)C(=O)N(C)[C@@H]2C(=O)N[C@@H](C)C(=O)N[C@H](C(=O)NCC#N)Cc3ccc(OCCN)c(c3)-c3cc2ccc3OCCN)c(C)c1", "µg/mL", 0.047),
    ("CCCCCCCCc1cccc(C(=O)N[C@@H](CCCCN)C(=O)N(C)[C@@H]2C(=O)N[C@@H](C)C(=O)N[C@H](C(=O)NCC#N)Cc3ccc(OCCN)c(c3)-c3cc2ccc3OCCN)c1", "µg/mL", 0.063),
]

====

Recorded pIC50 values for a group of compounds are listed next.
Target: SpsB (Staphylococcus aureus signal peptidase) (Staphylococcus aureus)
Construct: This assay uses a suspension of Staphylococcus aureus cells as a source of SpsB instead of recombinant SpsB protein; endogenous in cells; host or cells: S. aureus, USA300 background, overexpressing SpsB (whole-cell suspension from frozen pellets)
Sequence (P0A070 whole entry): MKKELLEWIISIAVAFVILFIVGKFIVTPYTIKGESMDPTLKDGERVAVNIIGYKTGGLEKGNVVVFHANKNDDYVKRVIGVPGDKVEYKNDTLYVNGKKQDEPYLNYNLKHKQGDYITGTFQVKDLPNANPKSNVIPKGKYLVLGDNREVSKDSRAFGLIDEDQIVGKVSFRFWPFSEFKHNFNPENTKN
Experiment: cell-based
Type: biochemical
Settings: SpsB IC50, whole-cell S. aureus (USA300 background, overexpressing SpsB) as SpsB source; fluorogenic peptide substrate, kinetic read 30 min
pIC50: −log10 of the molar value.
recorded.metric: pIC50

# smiles.notation, system.under.test, reported.measurement
records = [
    ("CCCCCCCOc1ccc(C(=O)N[C@@H](CCN)C(=O)N(C)[C@@H]2C(=O)N[C@@H](C)C(=O)N[C@H](C(=O)NCC#N)Cc3ccc(OCCN)c(c3)-c3cc2ccc3OCCN)c(C(F)F)c1", "SpsB (Staphylococcus aureus signal peptidase) (Staphylococcus aureus)", 8.54),
    ("CCCCCCc1ccc(-c2ncc(C(=O)N[C@@H](CCN)C(=O)N(C)[C@@H]3C(=O)N[C@@H](C)C(=O)N[C@H](C(=O)NCC#N)Cc4ccc(OCCN)c(c4)-c4cc3ccc4OCCN)c(C)n2)cc1", "SpsB (Staphylococcus aureus signal peptidase) (Staphylococcus aureus)", 9.09),
    ("Cc1cc(C2CCCC2)ccc1C(=O)N[C@@H](CCN)C(=O)N(C)[C@@H]1C(=O)N[C@@H](C)C(=O)N[C@H](C(=O)NCC#N)Cc2ccc(OCCN)c(c2)-c2cc1ccc2OCCN", "SpsB (Staphylococcus aureus signal peptidase) (Staphylococcus aureus)", 9.01),
    ("Cc1cc(-c2ccc(Cl)cc2)ccc1C(=O)N[C@@H](CCN)C(=O)N(C)[C@@H]1C(=O)N[C@@H](C)C(=O)N[C@H](C(=O)NCC#N)Cc2ccc(OCCN)c(c2)-c2cc1ccc2OCCN", "SpsB (Staphylococcus aureus signal peptidase) (Staphylococcus aureus)", 9.12),
    ("CCCCCCCc1ccc(C(=O)N[C@@H](CCN)C(=O)N(C)[C@@H]2C(=O)N[C@@H](C)C(=O)N[C@H](C(=O)NCC#N)Cc3ccc(OCCN)c(c3)-c3cc2ccc3OCCN)c(C)c1", "SpsB (Staphylococcus aureus signal peptidase) (Staphylococcus aureus)", 9.14),
    ("CCCCCCc1ccc(C(=O)N[C@@H](CCN)C(=O)N(C)[C@@H]2C(=O)N[C@@H](C)C(=O)N[C@H](C(=O)NCC#N)Cc3ccc(OCCN)c(c3)-c3cc2ccc3OCCN)cn1", "SpsB (Staphylococcus aureus signal peptidase) (Staphylococcus aureus)", 8.85),
    ("C[C@@H]1NC(=O)[C@@H](N(C)C(=O)[C@H](CCN)NC(=O)c2ccc(C#CC3CCCCC3)cc2C(F)F)c2ccc(OCCN)c(c2)-c2cc(ccc2OCCN)C[C@@H](C(=O)NCC#N)NC1=O", "SpsB (Staphylococcus aureus signal peptidase) (Staphylococcus aureus)", 9.19),
    ("CCC(C)(C)c1ccc(-c2ncc(C(=O)N[C@@H](CCN)C(=O)N(C)[C@@H]3C(=O)N[C@@H](C)C(=O)N[C@H](C(=O)NCC#N)Cc4ccc(OCCN)c(c4)-c4cc3ccc4OCCN)c(C)n2)cc1", "SpsB (Staphylococcus aureus signal peptidase) (Staphylococcus aureus)", 9.21),
    ("CCCCOc1ccc(-c2ncc(C(=O)N[C@@H](CCN)C(=O)N(C)[C@@H]3C(=O)N[C@@H](C)C(=O)N[C@H](C(=O)NCC#N)Cc4ccc(OCCN)c(c4)-c4cc3ccc4OCCN)c(C)n2)cc1", "SpsB (Staphylococcus aureus signal peptidase) (Staphylococcus aureus)", 9.21),
    ("Cc1cc(OCCC(C)(C)C)ccc1C(=O)N[C@@H](CCN)C(=O)N(C)[C@@H]1C(=O)N[C@@H](C)C(=O)N[C@H](C(=O)NCC#N)Cc2ccc(OCCN)c(c2)-c2cc1ccc2OCCN", "SpsB (Staphylococcus aureus signal peptidase) (Staphylococcus aureus)", 8.96),
]
